- measuredTarget: T1, MPDZ_12, O75970
- T1 sequence (O75970 1857-1958, limits assumed, looked up): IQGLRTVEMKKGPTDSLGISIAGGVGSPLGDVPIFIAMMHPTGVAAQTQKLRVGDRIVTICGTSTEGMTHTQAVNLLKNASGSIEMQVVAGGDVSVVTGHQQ
- protocolDetails: holdup assay
- Set-up: key: below the threshold = too weak to quantify, mostly under pKd 3.1 to 4
- conditionInfo: plain residues with an end cap or a label only (N-terminal biotin on a linker: ado-ado)
observationType: pKd

Check out these entries, answers already filled in.
binder: IGHEDLETAV [DGKI, O75912]
observationType: pKd
observedValue: below the threshold
//
binder: NTALVESEDL [PALLS, Q8WX93;Q8WX93-1]
observationType: pKd
observedValue: below the threshold
//
binder: LPPPESESKV [KCNJ9, Q92806]
observationType: pKd
observedValue: below the threshold
//
binder: KLQNPNQSVV [TYRP1, P17643]
observationType: pKd
observedValue: below the threshold

GET /value?item= PLPPEEESWV [GAS2L2, Q8NHY3] &field=pKd returns 4.36

Where do the numbers come from? From paper PMC9482650.
